B1: ANKRD40 (parent)
chain: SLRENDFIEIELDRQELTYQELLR

Variants of: B1
Test: protein stability index of a GFP-peptide fusion (GPS, HEK-293T) (PSI 1-6); higher = more stable;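 further: lentivirally expressed fusions sorted by FACS into six bins by GFP to DsRed ratio, PSI derived from sequencing read proportions per bin multiplied by bin number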
Conditions: c terminus: a fixed tail appended
Provide the reported protein stability index of each item.
The answer should be written as a number, with no unit following it.

// query Item L12K has what recorded protein stability index?
// result 3.91

// query What does the data say about its protein stability index? Entry: D13V
// result 1.78

// query Reported protein stability index, variant Q20Y : ____
// result 2.29

// query Return reported protein stability index; argument: L23F
// result 2.54

// query # input variant: R14A ; wanted: its protein stability index
// result 2.87

// query Recorded protein stability index for R24N , please?
// result 3.49

// query Given L17I , state its recorded protein stability index.
// result 3.19

// query Please give the measured protein stability index for this variant: Q15G
// result 3.68

// query Please report the recorded protein stability index for E4V .
// result 1.83

// query Query: protein stability index; subject: F7E
// result 4.46

// query Value lookup for protein stability index; key = R24D
// result 3.17

// query May I ask what protein stability index has been recorded for N5Y ?
// result 2.75

// query Which protein stability index value is on record for L12S ?
// result 4.18

// query Which protein stability index value is on record for R14N ?
// result 3.54

// query What value of protein stability index has been reported for the following variant? E16H
// result 2.89

// query Requested field: protein stability index. Item: D13G
// result 2.77

// query # input variant: E11M ; wanted: its protein stability index
// result 2.41

// query Recorded protein stability index for L12C , please?
// result 3.88

// query Bench note: what protein stability index did E9T show?
// result 2

// query Quick one: protein stability index of E4F ?
// result 2.41

// query Return reported protein stability index; argument: L22D
// result 4.54

// query I would be grateful if you could share the reported protein stability index for E21F .
// result 1.69
